Reference source: patent US20230109839A1

- measurementTarget: human Nav1.1 (Homo sapiens, UniProt P35498)
- Construct: host or cells: HEK293
- measurementNotes: Amplification of Nav1.1-derived voltage-gated sodium current (Nav1.1 current), automated patch clamp (Test 1)
- Type: cell-based
- experimentalSetup: Concentration for evaluation 1 μM; HEK293 cell line stably expressing human Nav1.1
measuredEndpoint: Nav1.1 current amplification rate (%)

Sample records with Nav1.1 current amplification rate (%):
CC1=CCN(c2ncc3cnn(CC(=O)Nc4ccn5ncnc5c4)c3n2)CC1; 45
CC1CC=C(c2ccc(=O)n(CC(=O)Nc3ccc4nccn4c3)n2)CC1 (stereo not shown); 44

I = CC1CC=C(c2ccc(=O)n(CC(=O)N3CC=C(c4ccncc4)CC3)n2)CC1 (stereo not shown)
II = CN(c1ncc2cnn(CC(=O)Nc3ccn4ncnc4c3)c2n1)C1CC1
Q: Higher Nav1.1 current amplification rate (%): I or II ? # answer = label of selected item
Result: I

1 = CN(c1cnc2cnn(CC(=O)Nc3ccn4ccnc4c3)c2n1)C1CC1
2 = CC1CC=C(c2ccc(=O)n(CC(=O)N3CCc4cc(OCC(C)(C)O)ccc43)n2)CC1 (stereo not shown)
3 = CN(c1cnc2cnn(CC(=O)N3CCc4c(-c5ccnnc5)cccc43)c2n1)C1CC1
Q: rank_up(items): orders items by reported Nav1.1 current amplification rate (%) in ascending numerical order. List the labels according to the requested ordering.
Result: 2, 1, 3
(2: 10%, 1: 60%, 3: 366%)

a = CO[C@@H]1CCN(Cc2cccc3c2CCN3C(=O)Cn2nc(C3=CCC(C)CC3)ccc2=O)C1 (stereo partly shown)
b = COCCNCc1cccc2c1CCN2C(=O)Cn1nc(C2=CCC(C)CC2)ccc1=O (stereo not shown)
Q: Hey, which is lower on measured Nav1.1 current amplification rate (%), a or b ? # answer = label of selected item
Result: b
(b: 9%, a: 77%)

a = CN(c1cnc2cnn(CC(=O)Nc3ccc(C#N)nc3)c2n1)C1CCCC1
b = CC1CC=C(c2ccc(=O)n(CC(=O)Nc3ccc4nccnc4c3)n2)CC1 (stereo not shown)
c = CN(c1cnc2cnn(CC(=O)Nc3ccc(C#N)nc3)c2n1)C1CC1
Q: Arrange the 3 compounds from largest to smallest Nav1.1 current amplification rate (%). List the labels according to the requested ordering.
Result: b, a, c
